- subject-of-test: Estrogen receptor (Homo sapiens) (UniProt P03372)
- Sequence (P03372 whole entry, looked up): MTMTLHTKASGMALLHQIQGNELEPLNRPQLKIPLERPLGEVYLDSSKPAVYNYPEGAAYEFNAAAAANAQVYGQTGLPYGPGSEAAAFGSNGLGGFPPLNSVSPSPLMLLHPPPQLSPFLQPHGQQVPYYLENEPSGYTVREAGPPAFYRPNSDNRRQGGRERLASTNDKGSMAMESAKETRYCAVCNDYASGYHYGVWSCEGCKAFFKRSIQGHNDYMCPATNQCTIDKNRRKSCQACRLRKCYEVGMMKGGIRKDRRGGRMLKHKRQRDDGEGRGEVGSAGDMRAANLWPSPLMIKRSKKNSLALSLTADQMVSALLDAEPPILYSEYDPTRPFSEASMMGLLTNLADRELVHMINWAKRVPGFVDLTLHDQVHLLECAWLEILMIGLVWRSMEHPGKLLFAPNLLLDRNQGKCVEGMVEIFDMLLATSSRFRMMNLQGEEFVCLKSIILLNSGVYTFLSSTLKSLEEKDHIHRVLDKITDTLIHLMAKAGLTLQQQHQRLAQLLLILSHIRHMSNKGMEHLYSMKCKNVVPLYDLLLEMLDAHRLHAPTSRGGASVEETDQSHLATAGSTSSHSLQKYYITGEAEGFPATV
- run-description: qHTS assay to identify small molecule antagonists of the estrogen receptor alpha (ER-alpha) signaling pathway using the BG1 cell line in the presence of 0.1 nM 17-beta-estradiol (AID 1259244); further: nearly all actives have a fitted effect of over 50% in size
- assay-setup: VM7Luc4E2 (BG1) ERE-luciferase, antagonist mode, 0.1 nM E2, 22 h; series mostly up to 92.4 µM
Inconclusive results are not listed. The source made the active and inactive calls. The call rests on the fitted dose curve; in most records, active means well fitted inhibition curve with a large enough effect in the repeat runs; inconclusive means weak or mixed curves; inactive means no such curve, though single readings can be large or run the other way.
reported-property: activity change, negative = inhibition

Below, 6 compounds whose answers are already recorded.
| compound | obs-value |
| --- | --- |
| Oc1ccccc1Cc1ccccc1O | inactive |
| CCN1CN(CC)CN(CC)C1 | inactive |
| CCc1nccnc1C | inactive |
| CNC(=O)NC | inactive |
| FC(F)(F)/C(=N\OCC1OCCO1)c1ccc(Cl)cc1 | inactive |
| CC1=CC[C@H](CC=O)C1(C)C | inactive |

-- ask Which activity change, negative = inhibition reading was recorded for the compound `CC(C)(c1ccc(Oc2ccc3c(c2)C(=O)OC3=O)cc1)c1ccc(Oc2ccc3c(c2)C(=O)OC3=O)cc1` ?
-- reply inactive

-- ask Fill in: activity change, negative = inhibition of CCCCC(CC)COC(=O)c1ccccc1 (stereo not drawn) is ___
-- reply inactive

---

- run-description: qHTS assay for identifying genotoxic compounds that show differential cytotoxicity against isogenic chicken DT40 cell lines with known DNA damage response pathways - wild type cell line (AID 743012); further: nearly all actives have a fitted effect of over 60% in size
- assay-setup: DT40 wild type chicken cells viability, CellTiter-Glo, 40 h; series mostly up to 68.4 µM
Records with an inconclusive call do not appear. Activity calls are given as the source filed them. Calls come from the whole dose curve; as a rule, active = well fitted cell-killing curve with a large enough effect in the repeat runs; inconclusive = weak or mixed curves, or effect the other way; inactive = no such curve, though single readings can be large or run the other way.
reported-property: outcome

Would you please look over these solved cases?
| compound | reported-property | obs-value |
| --- | --- | --- |
| O=C(O)Cc1cccc(-c2cc(CCCCCCc3ccc(O[C@H]4O[C@H](CO)[C@@H](O)[C@H](O)[C@@H]4O)c(-c4cccc(CC(=O)O)c4)c3)ccc2O[C@H]2O[C@H](CO)[C@@H](O)[C@H](O)[C@@H]2O)c1 | outcome | inactive |
| CCC1COC(=O)O1 (stereo not given) | outcome | inactive |
| C1=C\CC/C=C\CC/1 | outcome | inactive |
| FC(F)(F)/C(=N\OCC1OCCO1)c1ccc(Cl)cc1 | outcome | inactive |
| CCCCC(C)C(=O)O (stereo not given) | outcome | inactive |
| O=C(c1ccc2c(c1)C(=O)OC2=O)c1ccc2c(c1)C(=O)OC2=O | outcome | inactive |
| Cc1nc([N+](=O)[O-])cn1-c1ccc([N+](=O)[O-])cc1 | outcome | inactive |
| CCNC(=O)/C=C/c1cccc(Br)c1 | outcome | inactive |
| NS(=O)(=O)c1cc2c(cc1Cl)NC(CC1CCCC1)NS2(=O)=O (stereo not given) | outcome | inactive |

Now for the compound whose outcome we want.
-- ask Report outcome for `C[C@H]1O[C@H](O[C@H]2[C@H](O)[C@@H](O)[C@@H](O[C@H]3[C@H](O)[C@@H](O)[C@H](O)O[C@@H]3CO)O[C@@H]2CO)[C@H](O)[C@@H](O)[C@@H]1N[C@H]1C=C(CO)[C@@H](O)[C@H](O)[C@H]1O` please.
-- reply inactive

---

- subject-of-test: Estrogen receptor (Homo sapiens) (UniProt P03372)
- run-description: qHTS assay to identify small molecule agonists of the estrogen receptor alpha (ER-alpha) signaling pathway using the BG1 cell line (AID 743079); further: nearly all actives have a fitted effect of over 20% in size
- assay-setup: BG1Luc4E2 cells, ERE-luciferase agonist, 22 h; series mostly up to 70.3 µM
Records with an inconclusive call do not appear. The source made the active and inactive calls. The call rests on the fitted dose curve; in most records, active means well fitted activation curve with a large enough effect in the repeat runs; inconclusive means weak or mixed curves, or effect the other way; inactive means no such curve, though single readings can be large or run the other way.
Hi! Could you answer with just one of these? Yes for active, No for inactive

-- ask Can you look up the reported call for `O=[Si]=O` for me?
-- reply No

-- ask // outcome(item) with item = `CCCCOC(=O)[C@@H](C)Oc1ccc(Oc2ccc(C(F)(F)F)cn2)cc1`
-- reply Yes

-- ask Fill in: this test's call for O=P(O)(O)OCC(O)CO (stereo not drawn) is ___
-- reply No

-- ask Outcome? CC(C)CCCCCCOC(=O)C1CCCCC1C(=O)OCCCCCCC(C)C (stereo not drawn)
-- reply No

-- ask Status in this test for `O=C(O)c1ccccc1C(=O)OCc1ccccc1` ?
-- reply No

-- ask Could you please tell me the result logged for `Nc1ccc(S(=O)(=O)Nc2ccccn2)cc1` in this assay?
-- reply No

-- ask Outcome logged for `O=S1(=O)CCCC1` in this assay:
-- reply No

-- ask Recorded test call requested for CCCCC(CC)COC(=O)c1ccccc1 (stereo not drawn)
-- reply No

-- ask GET /call?item= C=CCOCC(O)CCl (stereo not drawn) returns the recorded outcome of this test.
-- reply No

-- ask Please state the recorded outcome for this compound: `O=c1[nH]c(=O)c2[nH]c(=O)[nH]c2[nH]1`
-- reply No

-- ask What was the test verdict on `CC(C)CCO` ?
-- reply No

-- ask GET /call?item= `CC(=O)/C=C/c1ccco1` returns the recorded outcome of this test.
-- reply No

-- ask Lab log entry: `CCCCCCCCCCCCOC(C)=O` — outcome as called in the assay?
-- reply No

-- ask Per the assay record, what outcome was assigned to `CC(=O)c1ccc(OCC(=O)N2CCCCC2)cc1` ?
-- reply Yes

-- ask Short answer needed: outcome of this test for `CCC(CO)CO` ?
-- reply No

-- ask Hi, sorry to bother you, what did the test record for `CC(C)(c1ccc(Oc2ccc3c(c2)C(=O)OC3=O)cc1)c1ccc(Oc2ccc3c(c2)C(=O)OC3=O)cc1` ?
-- reply No

-- ask GET /call?item= `Cc1cccc(Nc2ccncc2S(=O)(=O)NC(=O)NC(C)C)c1` returns the recorded outcome of this test.
-- reply No

-- ask Which outcome was entered for the compound `O=C1OC(=O)c2cc(Oc3ccc4c(c3)C(=O)OC4=O)ccc21` in this test?
-- reply No

-- ask Assay result, entry CCCCCCCCCCCCC1CO1 (stereo not drawn) — outcome?
-- reply No

-- ask Give the logged outcome of this assay for the following compound: `NCCc1ccn[nH]1`
-- reply No

-- ask Identify the outcome logged in this assay for the compound shown: `CCC(=O)c1ccc(O)cc1`
-- reply No

-- ask Hey, what did the test say about `Cc1ccccc1C(=O)N1CC/C(=N\OS(=O)(=O)O)c2ccc(Cl)cc21` ?
-- reply No

-- ask // return assay outcome for `CCc1nccnc1C`
-- reply No

-- ask Assay outcome for `CCCCCCCCCCCCCC(=O)OC` : what was it?
-- reply No

-- ask I'd appreciate the recorded outcome for CC(=O)N(CC(O)CO)c1c(I)c(C(=O)NCC(O)CO)c(I)c(C(=O)NCC(O)CO)c1I (stereo not drawn) from this test.
-- reply No

-- ask Look up the recorded call for `CCNC(=O)NCCCOc1cccc(CN2CCCCC2)c1` in this test.
-- reply No

-- ask Hi team, can someone confirm the assay call for `NC(=O)NNC(N)=O` ?
-- reply No

-- ask So what was the verdict on `CCCCCCCC/C=C\CCCCCCCC(=O)OC[C@@H](O)[C@H]1OC[C@H](O)[C@H]1O` in this test?
-- reply No

-- ask Each compound tested received a call. Report the one for `C=CCOC(=O)c1ccc(C(=O)OCC=C)c(C(=O)OCC=C)c1` .
-- reply No

-- ask Per the assay record, what outcome was assigned to `C[Si]1(C)N[Si](C)(C)N[Si](C)(C)N1` ?
-- reply No

-- ask Could you kindly confirm the outcome this assay logged for `CCCCC(=O)N(C)C` ?
-- reply No

-- ask Fill in: this test's call for `O=C1OC(=O)c2ccccc21` is ___
-- reply No

-- ask Hi, do you know how `CCCCCCCCOC(C)=O` came out in this test?
-- reply No

-- ask What outcome does the record of this test show for `O=C(O)/C=C/c1ccccc1` ?
-- reply No

-- ask What did this assay record as the result for `CC(C)COC(=O)/C=C/c1ccccc1` ?
-- reply No

-- ask Recorded call for `CC(C)SCc1ccco1` ?
-- reply No

-- ask Name the outcome recorded for `CNC(=O)C(c1ccccc1)c1ccccc1` in the assay.
-- reply No

-- ask Can you look up the reported call for `CC(C)C(=O)c1ccccc1` for me?
-- reply No
